# test-summary: Visible precipitation of aqueous gemcitabine solutions on storage (solubility, initial pH ca. 4,0)
# Format: physicochemical
# assay-context: water, pH 4, water, 2-8°C storage, no solubility enhancers, read-out: Gehalt klarer partikelfreier Gemcitabinlösungen
readout-name: solubility

In [3]: df
Out[3]:
                           molecular_string  readout_name  value_reported
0  Nc1ccn([C@@H]2O[C@H](CO)[C@@H](O)C2(F)F)c(=O)n1    solubility    ~10000 µg/mL
